Experiment: Mouse liver microsomal stability of compound in microsomal protein, PBS buffer pH 7.4, NADPH, glucose-6-phosphate and glucose-6-phosphate dehydrogenase media. Aliquotes were taken at 5 time points and after stopping the reaction, supernatants were analyzed using HPLC coupled with a tandem mass spectrometer. The elimination constant, half-life, and intrinsic clearance are determined as results using linear regression analysis.
Assay type: ADME, microsomes, Microsome
Conditions: microsomes
measurement name: Remaining (%)

(P) O=C(NCC(F)F)[C@H](Nc1cc2c(cc1Br)CNC2)c1cc(Cl)cc(C2CC2)c1
(Q) O=C(Nc1ccc2c(c1)CNC2)c1cc(Cl)cc2[nH]ncc12
(R) O=C(Nc1cc(Br)c2c(c1)CNC2)c1cc(F)cc2[nH]ncc12
(S) O=C(Nc1cc2c(cc1Br)CNC2)c1cc(F)cc2[nH]ncc12
## Input Order by Remaining, ascending. Give your ranking as a list of the labels in the requested order.
## Output S, Q, R, P

====

Test: Human liver microsomal stability of compound in microsomal protein, PBS buffer pH 7.4, NADPH, glucose-6-phosphate and glucose-6-phosphate dehydrogenase media. Aliquotes were taken at 5 time points and after stopping the reaction, supernatants were analyzed using HPLC coupled with a tandem mass spectrometer. The elimination constant, half-life, and intrinsic clearance are determined as results using linear regression analysis.
Type: ADME, microsomes, Microsome
Details: liver microsomes
measurement name: half-life (h)

(1) O=C(NCC(F)F)[C@H](Nc1cc2c(cc1Br)CNC2)c1cc(Cl)cc(C2CC2)c1
(2) CCCCNC(=O)[C@H](Nc1ccc2c(c1)CNC2)c1cc(Cl)cc(C2CC2)c1
## Input Given the listed records, identify the one among 1 and 2 with higher half-life. Refer to your chosen entry by its label in the reply.
## Output 2

====

Assay: Human liver microsomal stability of compound in microsomal protein, PBS buffer pH 7.4, NADPH, glucose-6-phosphate and glucose-6-phosphate dehydrogenase media. Aliquotes were taken at 5 time points and after stopping the reaction, supernatants were analyzed using HPLC coupled with a tandem mass spectrometer. The elimination constant, half-life, and intrinsic clearance are determined as results using linear regression analysis.
Type: ADME, microsomes, Microsome
Conditions: liver microsomes
measurement name: microsomal CLint (µL/min/mg)

Illustrative cases are given below, each with its answer.
| compound structure string | measurement name | unit of measure | endpoint value |
| --- | --- | --- | --- |
| O=C(O)c1cc(Cl)ccc1S(=O)(=O)NC1CCN(c2nc(C3CC3)cc(C(F)(F)F)n2)CC1 | microsomal CLint | µL/min/mg | 26.3 |
| O=C(Nc1cc(Cl)cc([C@H]2CN(Cc3ccccc3)C[C@@H]2c2cccc(-c3nn[nH]n3)c2)c1)OCc1ccccc1 | microsomal CLint | µL/min/mg | 46.3 |
| c1ccc2c(CN3CCC(c4c[nH]c5cccnc45)CC3)c[nH]c2c1 | microsomal CLint | µL/min/mg | 16 |

(I) O=C(Nc1cc(Br)c2c(c1)CNC2)c1cc(F)cc2[nH]ncc12
(II) CCOc1cccc(-c2ccc(S(=O)(=O)Nc3ccc(Cl)cc3C(=O)O)cc2)c1
(III) O=C(Nc1ccc2c(c1)CNC2)c1cc(F)cc(-c2cn[nH]c2)c1
## Input Arrange by microsomal CLint, high to low. Give your ranking as a list of the labels in the requested order.
## Output II, III, I
(II: 119 µL/min/mg, III: 35.2 µL/min/mg, I: 13.6 µL/min/mg)

====

Test: Mouse liver microsomal stability of compound in microsomal protein, PBS buffer pH 7.4, NADPH, glucose-6-phosphate and glucose-6-phosphate dehydrogenase media. Aliquotes were taken at 5 time points and after stopping the reaction, supernatants were analyzed using HPLC coupled with a tandem mass spectrometer. The elimination constant, half-life, and intrinsic clearance are determined as results using linear regression analysis.
Format: ADME, microsomes, Microsome
Conditions: microsomes
measurement name: Remaining (%)

| compound structure string | measurement name | endpoint value |
| --- | --- | --- |
| O=C(NCC(F)F)[C@H](Nc1ccc2c(c1)CNC2)c1cc(Cl)cc2ccoc12 | Remaining | 93.727 |
| O=C(Nc1ccc2c(c1)CNC2)c1cccc2[nH]c(C(F)(F)F)cc12 | Remaining | 75.758 |
| COc1cc(C#N)cc([C@H](Nc2ccc3c(c2)CNC3)C(=O)NCC(F)F)c1 | Remaining | 90.033 |
| COc1cc(Cl)cc([C@H](Nc2ccc3c(c2)CNC3)C(=O)NCC(F)F)c1 | Remaining | 81.928 |
| O=C1Cc2cc(C(=O)Nc3ccc4c(c3)CNC4)ccc2N1 | Remaining | 102.985 |
| CCCC[C@@H](NC(=O)OC(C)(C)C)C(=O)N[C@@H](C(=O)NCc1ccc(CN)cc1)c1ccc(OCc2ccccc2)cc1 | Remaining | 87.681 |

====

half-life listing for selected compounds.
Test: Mouse liver microsomal stability of compound in microsomal protein, PBS buffer pH 7.4, NADPH, glucose-6-phosphate and glucose-6-phosphate dehydrogenase media. Aliquotes were taken at 5 time points and after stopping the reaction, supernatants were analyzed using HPLC coupled with a tandem mass spectrometer. The elimination constant, half-life, and intrinsic clearance are determined as results using linear regression analysis.
Assay type: ADME, microsomes, Microsome
Conditions: liver microsomes

Illustrative cases are given below, each with its answer.
| compound structure string | half-life |
| --- | --- |
| COCc1cc(Cl)cc([C@H](Nc2ccc3c(c2)CNC3)C(=O)NCC(F)F)c1 | > 173 min |
| CNC(=O)[C@H](Nc1ccc2c(c1)CNC2)c1cc(Cl)cc(C2CC2)c1 | > 173 min |

Moving on to another compound below.
## Input Answer with the recorded half-life for the compound listed here: "O=C1Cc2c(cccc2C(=O)Nc2ccc3c(c2)CNC3)N1"
## Output > 173 min

====

Test: Mouse liver microsomal stability of compound in microsomal protein, PBS buffer pH 7.4, NADPH, glucose-6-phosphate and glucose-6-phosphate dehydrogenase media. Aliquotes were taken at 5 time points and after stopping the reaction, supernatants were analyzed using HPLC coupled with a tandem mass spectrometer. The elimination constant, half-life, and intrinsic clearance are determined as results using linear regression analysis.
Type: ADME, microsomes, Microsome
Conditions: liver microsomes
measurement name: microsomal CLint (µL/min/mg)

(a) O=C(NCCCF)[C@H](Nc1ccc2c(c1)CNC2)c1cc(Cl)cc(C2CC2)c1
(b) O=C(Nc1ccc2c(c1)CNC2)c1cc(Cl)cc2[nH]ncc12
(c) O=C(Nc1cc(Br)c2c(c1)CNC2)c1cc(F)cc2[nH]ncc12
## Input Order by microsomal CLint, ascending. Give your ranking as a list of the labels in the requested order.
## Output a, c, b
(a: 17.4 µL/min/mg, c: 145 µL/min/mg, b: 243 µL/min/mg)

====

Assay: Human liver microsomal stability of compound in microsomal protein, PBS buffer pH 7.4, NADPH, glucose-6-phosphate and glucose-6-phosphate dehydrogenase media. Aliquotes were taken at 5 time points and after stopping the reaction, supernatants were analyzed using HPLC coupled with a tandem mass spectrometer. The elimination constant, half-life, and intrinsic clearance are determined as results using linear regression analysis.
Type: ADME, microsomes, Microsome
Conditions: microsomes
measurement name: Remaining (%)

Illustrative cases are given below, each with its answer.
| compound structure string | Remaining, % |
| --- | --- |
| CC(C)NC(=O)[C@H](Nc1ccc2c(c1)CNC2)c1cc(Cl)cc2[nH]ncc12 | 91.546 |
| CNC(=O)[C@H](Nc1cc(CN)cc(C(=O)O)c1)c1cc(Cl)cc(C2CC2)c1 | 98.4 |
| O=C(Nc1ccc2c(c1)CNC2)c1cc(F)cc2[nH]ncc12 | 86.703 |
| O=C(Nc1ccc2c(c1)CNC2)c1cc(Cl)cc2ccncc12 | 107.799 |
| CSc1cc2c(cc1NC(=O)c1cc(F)cc3[nH]ncc13)CNC2 | 88.673 |

(1) O=C(Nc1ccc2c(c1)CNC2)c1cc(Cl)cc2cn[nH]c12
(2) CC[C@@H](Cc1nnn[nH]1)c1ccc(NC(=O)c2cc(Cl)cc(NC(=O)OCc3ccccc3)c2)cc1
(3) O=C(O)c1cc(Cl)ccc1NS(=O)(=O)c1ccc(-c2ccccc2Cl)cc1
## Input Arrange these 3 compounds in increasing order of Remaining. Give your ranking as a list of the labels in the requested order.
## Output 3, 2, 1
(3: 0.295%, 2: 66.587%, 1: 105.314%)

====

half-life listing for selected compounds.
Experiment: Mouse liver microsomal stability of compound in microsomal protein, PBS buffer pH 7.4, NADPH, glucose-6-phosphate and glucose-6-phosphate dehydrogenase media. Aliquotes were taken at 5 time points and after stopping the reaction, supernatants were analyzed using HPLC coupled with a tandem mass spectrometer. The elimination constant, half-life, and intrinsic clearance are determined as results using linear regression analysis.
Type: ADME, microsomes, Microsome
Conditions: liver microsomes

Illustrative cases are given below, each with its answer.
| compound structure string | endpoint value |
| --- | --- |
| CC(C)n1cc2c(C(=O)Nc3ccc4c(c3)CNC4)cc(Cl)cc2n1 | > 173 min |
| CO[C@H]1C[C@H](n2ncc3c(C(=O)Nc4ccc5c(c4)CNC5)cc(Cl)cc32)C1 | > 173 min |

Moving on to another compound below.
## Input Answer with the recorded half-life for the compound listed here: "CNC(=O)[C@H](Nc1ccc2c(c1)CNC2)c1cc(Cl)cc2[nH]c(-c3ccccc3)nc12"
## Output > 173 min

These data points were gathered from ChEMBL document CHEMBL5665440.
